test system: Klebsiella pneumoniae; experiment: Antibacterial activity against KPC-2 producing multidrug-resistant Klebsiella pneumoniae clinical isolate 15-3 assessed as inhibition of bacterial growth incubated for 18 to 20 hrs by two fold serial dilution assay; format: functional; conditions: time 18-20 hrs
assay.readout: MIC
Report as: number unit

Here are 5 molecules together with their reported answers.
molecule	result
CC(C)[C@H](O/N=C(\C(=O)N[C@@H]1C(=O)N2C(C(=O)O)=C(CSCCNC(=O)c3ccc(O)c(O)c3Cl)CS[C@H]12)c1csc(N)n1)C(=O)O.O=C(O)C(F)(F)F	4 µg/mL
Nc1nc(/C(=N/OC(C(=O)O)C2CCS(=O)(=O)CC2)C(=O)N[C@@H]2C(=O)N3C(C(=O)O)=C(CSCCNC(=O)c4ccc(O)c(O)c4Cl)CS[C@H]23)cs1.O=C(O)C(F)(F)F (stereo partly specified)	2 µg/mL
Nc1nc(/C(=N/OC(C(=O)O)C2CCC2)C(=O)N[C@@H]2C(=O)N3C(C(=O)O)=C(CSCCNC(=O)c4ccc(O)c(O)c4Cl)CS[C@H]23)cs1.O=C(O)C(F)(F)F (stereo partly specified)	16 µg/mL
Nc1nc(/C(=N/OC(C(=O)O)C2CCC(F)(F)CC2)C(=O)N[C@@H]2C(=O)N3C(C(=O)O)=C(CSCCNC(=O)c4ccc(O)c(O)c4Cl)CS[C@H]23)c(Cl)s1.O=C(O)C(F)(F)F (stereo partly specified)	0.5 µg/mL
CC(C)(O/N=C(\C(=O)N[C@@H]1C(=O)N2C(C(=O)O)=C(CSCCNC(=O)c3ccc(O)c(O)c3Cl)CS[C@H]12)c1csc(N)n1)C(=O)O.O=C(O)C(F)(F)F	8 µg/mL

Entry under test: CC(C)[C@@H](O/N=C(\C(=O)N[C@@H]1C(=O)N2C(C(=O)O)=C(CSCCNC(=O)c3ccc(O)c(O)c3Cl)CS[C@H]12)c1csc(N)n1)C(=O)O.O=C(O)C(F)(F)F . Its MIC was 2 µg/mL
